target: GABARAPL2, P60520; experiment: median log2 fold change of GCK-ALFA target abundance (FLAG IP / Myc IP barcode read proportion) (log2 ratio); each designed protein is fused to an ALFA-tag nanobody in HEK293 cells to bring the named protein to FLAG-tagged glucokinase (GCK); Myc marks an untargeted standard; higher = target protein stabilised (more abundant); conditions: target protein: 3xFLAG-MCP-GCK-ALFA reporter; HEK293 landing pad (RPLP)
Sequence (P60520 whole entry, the tested form may be a part): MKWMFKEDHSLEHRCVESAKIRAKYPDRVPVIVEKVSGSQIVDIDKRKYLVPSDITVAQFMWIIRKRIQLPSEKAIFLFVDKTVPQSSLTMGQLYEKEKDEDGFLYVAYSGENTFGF
This section presents binders with their documented median log2 fold change values.

BINDER	median log2 fold change
GBRAPL2_53_7358 (protein) MLVVEIAHPDPAVVKEAAKKILAVIKEDGVEAKVTVTTENGEVKVLTGDIDKIEAEVTALAAKQPVLISIELPDSAEETVEKMEDIALEAGATVSVYREP	0.217
GBRAPL2_54_7388 (protein) MKKIRITVDFIAEGNDEELAKVEKVLLEELEKFKKELKEKFNAKTEISVERENGVLTITVDVITEEKDVDEVIDLADEVAKEVEKKTGVKVSVVIGIEEL	-0.363
